Target: recombinant renin in human plasma (Homo sapiens, UniProt P00797)
Sequence (P00797 67-406): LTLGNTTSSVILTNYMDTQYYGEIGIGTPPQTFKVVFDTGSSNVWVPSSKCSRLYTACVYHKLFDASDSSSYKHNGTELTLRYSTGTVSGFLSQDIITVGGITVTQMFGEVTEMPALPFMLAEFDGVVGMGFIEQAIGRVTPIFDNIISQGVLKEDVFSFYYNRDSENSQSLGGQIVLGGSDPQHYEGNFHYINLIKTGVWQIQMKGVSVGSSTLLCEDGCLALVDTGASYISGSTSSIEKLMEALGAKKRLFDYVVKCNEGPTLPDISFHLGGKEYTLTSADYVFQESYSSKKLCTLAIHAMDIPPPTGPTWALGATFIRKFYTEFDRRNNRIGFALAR
Test: Inhibition of renin in human plasma (QFRET, plasma)
Settings: human EDTA plasma with 1 nM recombinant renin added; 37° C., 1 hour
Experimental: Inhibition of Renin in Human Plasma Human EDTA-collected plasma is rapidly thawed in warm water and centrifuged at 2900 g for 15 minutes at 4° C. The supernatant is collected and recombinant renin (Proteos) is added at a final concentration of 1 nM. […] The plate is read in a SpectraMax Gemini EM reader set at an excitation wavelength of 490 nm and an emission wavelength of 520 nm at times 0 and 1 hour. Background fluorescence at t=0 is subtracted from the measurement at t=1 hour. […]
Recorded IC50 determines the group label, using lo = under 7 nM, med = from 7 nM up to 80 nM, hi = 80 nM and over

In [3]: df
Out[3]:
                                    compound                             target_system  assigned_category
 0  Cc1cc(-c2ccccc2CCNC(=O)C(F)(F)C(F)(F)F)ccc1[C@H]1CNCC[C@@H]1c1cc(F)cc(F)c1 (racemic)  recombinant renin in human plasma (Homo sapiens, UniProt P00797)                med
 1  CC(=O)NCCc1ccccc1-c1onc([C@H]2CNCC[C@@H]2c2ccc(OCCOc3c(Cl)cc(C)cc3Cl)cc2)c1Br  recombinant renin in human plasma (Homo sapiens, UniProt P00797)                 lo
 2  COC(=O)NCCc1ccccc1-c1ccc([C@H]2CNCC[C@@H]2c2ccc(F)c(F)c2)c(Cl)c1 (racemic)  recombinant renin in human plasma (Homo sapiens, UniProt P00797)                med
 3  CC(=O)NCCc1ccccc1-c1ccc([C@@H]2CNCC[C@H]2c2cc(F)cc(F)c2)c(C)c1  recombinant renin in human plasma (Homo sapiens, UniProt P00797)                 hi
 4  O[C@]1(c2ccc(F)c(F)c2)CCNC[C@@H]1c1onc(-c2c(Cl)cccc2Cl)c1Br  recombinant renin in human plasma (Homo sapiens, UniProt P00797)                 hi
 5  COC[C@H](C)COCc1ccc([C@@]2(O)CCNC[C@@H]2c2ccc(-c3ccccc3CCN3CCOC3=O)cc2C)cc1  recombinant renin in human plasma (Homo sapiens, UniProt P00797)                med
 6  COCC(F)(F)COCc1ccc([C@@]2(O)CCNC[C@@H]2c2ccc(-c3ccccc3CCNC(C)=O)cc2C)nc1  recombinant renin in human plasma (Homo sapiens, UniProt P00797)                 lo
 7  COC[C@H](C)COCc1ccc([C@@]2(O)CCNC[C@@H]2c2ccc(-c3ccccc3CCNC(N)=O)cc2C)cc1  recombinant renin in human plasma (Homo sapiens, UniProt P00797)                 lo
 8  COCCCc1ccccc1-c1ccc([C@H]2CNCC[C@@H]2c2cccnc2)c(Cl)c1 (racemic)  recombinant renin in human plasma (Homo sapiens, UniProt P00797)                med
 9  Cc1ccccc1OCc1ccccc1-c1ccc([C@H]2CNCC[C@@H]2c2cc(F)cc(F)c2)c(C)c1 (racemic)  recombinant renin in human plasma (Homo sapiens, UniProt P00797)                 hi
10  O=C(NCCc1ccccc1-c1ccc([C@H]2CNCC[C@@H]2c2ccc(F)c(F)c2)c(Cl)c1)C(F)(F)F (racemic)  recombinant renin in human plasma (Homo sapiens, UniProt P00797)                 lo
11  Fc1ccc([C@@]2(F)CCNC[C@@H]2c2onc(-c3cccc(Cl)c3Cl)c2Br)cc1F  recombinant renin in human plasma (Homo sapiens, UniProt P00797)                med
12  Cc1cc(-c2ccccc2CCCO)ccc1[C@H]1CNCC[C@@H]1c1cc(F)cc(F)c1 (racemic)  recombinant renin in human plasma (Homo sapiens, UniProt P00797)                 hi
13  CC(=O)NCCc1cc(C(F)(F)F)ccc1-c1ccc([C@H]2CNCC[C@@H]2c2ccc(F)c(F)c2)c(Cl)c1 (racemic)  recombinant renin in human plasma (Homo sapiens, UniProt P00797)                 hi
14  CC(=O)NCCc1ccccc1-c1ccc([C@H]2CNCC[C@@H]2c2ccn(C)c(=O)c2)c(Cl)c1 [Structure 59]  recombinant renin in human plasma (Homo sapiens, UniProt P00797)                 lo
15  CC(=O)NCCc1ccccc1-c1onc([C@H]2CNCC[C@]2(OCc2c[nH]nn2)c2ccc(F)c(F)c2)c1Br  recombinant renin in human plasma (Homo sapiens, UniProt P00797)                 lo
